B1: HDV Ribozyme (parent)
chain: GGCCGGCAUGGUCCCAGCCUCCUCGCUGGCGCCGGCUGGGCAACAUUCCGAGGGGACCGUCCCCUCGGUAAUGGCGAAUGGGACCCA

# Variants of: B1
# procedure.text: self-cleavage, relative activity (ratio to wild type); higher = more cleavage; co-transcriptional
quantity: self-cleavage

Below are worked cases with known answers.
mutation.string	self-cleavage
C4A G80A	0.0519
G6U C58A	0.672
U37A A45C	0.0707

# context switch: different variant, same self-cleavage
Return the recorded self-cleavage value; entry: C36A G80C 0.178
